Where do the numbers come from? From ChEMBL document CHEMBL4610056.

Assay: Activation of NF-kappaB (unknown origin)
Set-up: species or system Homo sapiens
Settings: read-out: EC50
Measured quantity: pEC50
For clarity, pEC50 is expressed as the negative log10 of concentration in mol/L.

Some solved entries appear below for comparison.
1) O=C(c1ccc2c(c1)OCO2)c1c[nH]c2ccc(Br)cc12 :: 5.35
2) O=C(c1ccc(F)c(F)c1)c1ccn(-c2ccccc2F)c1 :: 5.23
3) COc1cccnc1N/C=C\C(=O)c1ccccn1 :: 6.52
4) O=C(/C=C\Nc1ncccc1F)c1ccc2c(c1)OCO2 :: 7.00
5) O=C(c1ccc2c(c1)OCO2)c1ccn(-c2ccccc2F)c1 :: 5.49

Form field pEC50, entry O=C(c1ccc2c(c1)OCO2)c1ccn(-c2ccc(F)cc2)c1 : 4.89
